test: photoluminescence quantum yield (fraction); solvent given as SMILES; conditions: in CN(C)C=O
# photoluminescence quantum yield annotations

| smiles text | photoluminescence quantum yield |
| --- | --- |
| CN(C)CCN(Cc1c2ccccc2cc2ccccc12)c1ccc([N+](=O)[O-])cn1 | 0.0398 |
| COCCC1(CCOC)c2cc(-c3ccc(OC)cc3)ccc2-c2ccc(-c3ccc4c(c3)C(CCOC)(CCOC)c3cc(-c5ccc(OC)cc5)ccc3-4)cc21 | 0.95 |
| Nc1cccc2c1C(=O)NC2=O | 0.66 |
| COc1ccc(-c2csc(/C(C#N)=C\Nc3ccc(C#N)cc3)n2)cc1 | 0.003 |

----------
test: photoluminescence quantum yield (fraction); solvent given as SMILES; conditions: in O
Entry flag: y if photoluminescence quantum yield reaches 0.03; n if it does not.

| molecule | class assignment |
| --- | --- |
| CC1(C)C(/C=C/c2cc3ccc(O)cc3oc2=O)=[N+](CCCS(=O)(=O)[O-])c2ccc(S(=O)(=O)O)cc21 | n |
| COc1cc(/C=C2/SC(=O)NC2=O)ccc1O | n |
| COc1cc(/C=C2/SC(=O)NC2=O)cc(OC)c1O | n |
| COc1ccc(C2=C3C=CC(=[N+](C)C)C=C3[Si](C)(C)c3cc(N(C)C)ccc32)c(C)c1 | y |
| Cc1cc(-c2ccc(-c3n(C)c4ccccc4[n+]3C)cc2)ccc1-c1ccc(-c2n(C)c3ccccc3[n+]2C)cc1 | y |
| COc1ccc(C2CC(c3ccc(O)cc3)=NN2c2ccc(S(N)(=O)=O)cc2)cc1 (configuration not stated) | y |
| NS(=O)(=O)c1ccc(N2N=C(c3ccc(O)cc3)CC2c2ccc(Br)cc2)cc1 (configuration not stated) | y |
| COc1ccc(OC)c(C2=C3C=CC(=[N+](C)C)C=C3[Si](C)(C)c3cc(N(C)C)ccc32)c1 | n |
| Clc1ccc2cc3cccc[n+]3cc2c1 | y |
| O=C(O)c1cc2c(ccc3ccccc32)oc1=O | y |
| CN(C)c1ccc2c(-c3cc(N)ccc3C(=O)[O-])c3ccc(=[N+](C)C)cc-3oc2c1 | n |
| CC1=CC(=[N+]2CCC2)C=C2C1=Nc1c(C)cc(N3CCC3)cc1[Si]2(C)C | n |

----------
assay: photoluminescence quantum yield (fraction); solvent given as SMILES; details: in CCOC(C)=O
Documented photoluminescence quantum yield across a set of compounds
measured parameter: photoluminescence quantum yield

| smiles text | measured parameter | observed |
| --- | --- | --- |
| COC(=O)C[C@H](NC(=O)[C@H](Cc1c[nH]c2ccccc12)NC(=O)OC(C)(C)C)C(=O)OC | photoluminescence quantum yield | 0.39 |
| CN(C)c1ccc2c(c1)Cc1ccccc1-2 | photoluminescence quantum yield | 0.4 |
| CN(C)c1ccc(/C=C2\CC/C(=C\c3ccc(C#N)cc3)C2=O)cc1 | photoluminescence quantum yield | 0.09 |

----------
# photoluminescence quantum yield annotations
test: photoluminescence quantum yield (fraction); solvent given as SMILES; conditions: in CCOC(C)=O
measured parameter: photoluminescence quantum yield

| molecule | measured parameter | observed |
| --- | --- | --- |
| CCCN(c1ccccc1)c1ccc2c(c1)C(CC)(CC)c1cc(/C=C/c3ccc(/C=C(\C#N)C(=O)O)s3)ccc1-2 | photoluminescence quantum yield | 0.584 |
| COC(=O)c1ccc(C2=C3C=CC(C)=[N+]3[B-](F)(F)n3c(C)ccc32)cc1 | photoluminescence quantum yield | 0.053 |
| CC1=C(C(C)(C)C)C(C)=[N+]2C1=C(C)c1c(C)c(C(C)(C)C)c(C)n1[B-]2(F)F | photoluminescence quantum yield | 0.44 |
| Cc1cc(C(F)(F)F)nc2c1ccc1nc(-c3ccc(Cl)cc3)cn12 | photoluminescence quantum yield | 0.9 |
| O=[N+]([O-])c1ccc(F)cc1C1CC(c2cccc3ccccc23)=NN1c1ccccc1 (centres undefined) | photoluminescence quantum yield | 0.15 |
| CCCCCN(c1ccccc1)c1ccc2c(c1)C(CC)(CC)c1cc(/C=C/c3ccc(/C=C(\C#N)C(=O)O)s3)ccc1-2 | photoluminescence quantum yield | 0.801 |
| CCC1=C(C)C2=Cc3cccn3[B-](F)(F)[N+]2=C1C | photoluminescence quantum yield | 0.69 |
| CC(=O)Nc1ccc2c3cccc4cccc(c5cccc1c52)c43 | photoluminescence quantum yield | 0.5 |
| COc1cc2c(cc1/C=C/C(=C(C#N)C#N)c1ccccc1)c1ccccc1n2C | photoluminescence quantum yield | 0.009 |
| NS(=O)(=O)c1ccc(N2N=C(c3ccc(O)cc3)CC2c2ccc(Br)cc2)cc1 (centres undefined) | photoluminescence quantum yield | 0.75 |
| CN(C)c1ccc2nc(/C=C/c3ccccc3)c(=O)oc2c1 | photoluminescence quantum yield | 0.75 |
| CN(CC(O)c1cccc(O)c1)c1ccc([N+](=O)[O-])c(C2CC(c3cccc4ccccc34)=NN2c2ccccc2)c1 (centres undefined) | photoluminescence quantum yield | 0.25 |
| CCn1c2ccccc2c2cc(C#Cc3cc(C#Cc4ccc5c(c4)c4ccccc4n5CC)nc(C#N)n3)ccc21 | photoluminescence quantum yield | 0.68 |
| CC1(C)[C@@H]2CC[C@]1(C)c1nc3cc(-c4cccs4)ccc3nc12 | photoluminescence quantum yield | 0.02 |
| COc1ccc2cc3c(C)cc(=O)oc3cc2c1 | photoluminescence quantum yield | 0.0006 |
| COc1ccc(C2=C3C(C)=CC(C)=[N+]3[B-](F)(F)n3c(/C=C/c4ccc(N(C)C)cc4)cc(C)c32)cc1 | photoluminescence quantum yield | 0.59 |
| CC1=[N+]2C(=C(c3ccc(Br)cc3)c3ccc(C)n3[B-]2(F)F)C=C1c1cc2n(c1)[B-](F)(F)[N+]1=CC=CC1=C2c1c(C)cc(C)cc1C | photoluminescence quantum yield | 0.21 |
| COC(=O)C[C@H](Cc1c[nH]c2ccccc12)NC(=O)[C@H](CC(=O)N[C@@H](CC1=CCc2ccccc21)C(=O)OC)NC(=O)OC(C)(C)C | photoluminescence quantum yield | 0.22 |
| CC1=[N+]2C(=C(c3ccc(C=O)cc3)c3ccc(C)n3[B-]2(F)F)C=C1c1cc2n(c1)[B-](F)(F)[N+]1=CC=CC1=C2c1c(C)cc(C)cc1C | photoluminescence quantum yield | 0.2 |
| CC1=[N+]2C(=C(c3ccc(N4CCOCC4)cc3)c3ccc(C)n3[B-]2(F)F)C=C1 | photoluminescence quantum yield | 0.008 |
| CCNc1ccc2c(C(F)(F)F)cc(=O)oc2c1 | photoluminescence quantum yield | 0.61 |
| CCOc1cc2c(cc1/C=C/C1=CC(=C(C#N)C#N)CC(C)(C)C1)c1ccccc1n2CC | photoluminescence quantum yield | 0.026 |
| CCCSC1=[N+]2C(=C(c3ccccc3)c3ccc(SCCC)n3[B-]2(F)F)C=C1 | photoluminescence quantum yield | 0.36 |
| c1ccc(-c2nc3c(c4c2-c2ccccc2CC4)-c2ccccc2CC3)cc1 | photoluminescence quantum yield | 0.03 |

----------
assay: photoluminescence quantum yield (fraction); solvent given as SMILES; conditions: in Cc1ccccc1

| compound | photoluminescence quantum yield |
| --- | --- |
| Nc1ccc2c(c1)C(=O)N(C13C[C@H]4C[C@@H](C1)C[C@@H](C3)C4)C2=O | 0.8 |
| N#Cc1nc2c(nc1C#N)C1c3ccc(N(c4ccccc4)c4ccccc4)cc3C2c2ccc(N(c3ccccc3)c3ccccc3)cc21 | 0.25 |
| c1ccc(-c2nc3c4ccccc4c4ccccc4c3n2-c2cccc(-c3nc4c5ccccc5c5ccccc5c4n3-c3ccccc3)c2)cc1 | 0.75 |
| C(=C\c1ccc(N(c2ccccc2)c2ccccc2)cc1)/c1ccc(/C=C/c2ccc(N(c3ccccc3)c3ccccc3)cc2)cc1 | 0.82 |
| CN(C)c1ccc(C2=Nc3sc4cc(C(F)(F)F)ccc4[n+]3[B-](F)(F)O2)cc1 | 0.93 |
| N#Cc1c(-n2c3ccccc3c3ccccc32)c(F)c(-n2c3ccccc3c3ccccc32)c(-n2c3ccccc3c3ccccc32)c1-n1c2ccccc2c2ccccc21 | 0.81 |
| CC(C)(C)c1ccc(C(C)(C)C)c(N2C(=O)c3cccc4c(-c5ccc(-c6ccccc6)s5)ccc(c34)C2=O)c1 | 0.06 |
| F[B-]1(F)n2c(c3cccc4cccc2c43)=Nc2sc3ccccc3[n+]21 | 0.76 |
| CCCCC(CC)CN1C(=O)c2cccc3c(C#Cc4ccc(N(c5ccccc5)c5ccc(C#Cc6ccc7c8c(cccc68)C(=O)N(CC(CC)CCCC)C7=O)cc5)cc4)ccc(c23)C1=O (stereo unspecified) | 0.94 |
| CC(C)(C)c1ccc2c(c1)c1cc(C(C)(C)C)ccc1n2-c1ccc(S(=O)(=O)c2ccc(-n3c4ccc(C(C)(C)C)cc4c4cc(C(C)(C)C)ccc43)cc2)cc1 | 0.69 |
| CCOC(=O)CN1C(=O)C2=C(c3ccc(C#N)cc3)N(CC(=O)OCC)C(=O)C2=C1c1ccccc1 | 0.43 |

----------
Measured photoluminescence quantum yield accompanies every entry in the list below.
assay: photoluminescence quantum yield (fraction); solvent given as SMILES; conditions: in ClC(Cl)Cl

| compound | photoluminescence quantum yield |
| --- | --- |
| CCCN1c2ccccc2Sc2cc(/C=C\c3cc(=O)oc4cc(C)ccc34)ccc21 | 0.27 |
| CC1=[N+]2C(=C(c3ccc(N4CCOCC4)cc3)c3ccc(C)n3[B-]2(F)F)C=C1 | 0.11 |
| Cc1ccc2c(c1)c(C#N)c(C#N)c1cc(C)ccc12 | 0.15 |
| COc1ccc(-c2oc3cccc4c5c(-c6ccc(OC)cc6)/c(=N/S(=O)(=O)C(F)(F)F)oc6cccc(c2c34)c65)cc1 | 0.96 |
| F[B-]1(F)n2c(cc3c2-c2ccccc2CC3)C(c2ccc(I)cc2)=C2C=C3CCc4ccccc4C3=[N+]21 | 0.38 |
| Cc1ccc(C2=C3C=CC(C#Cc4ccccc4)=[N+]3[B-](F)(F)n3c(C#Cc4ccccc4)ccc32)cc1 | 1 |
| c1ccc2sc(-c3ccc(-c4nnc(-c5ccc(-c6nnc(-c7ccc(-c8cc9ccccc9s8)s7)o6)cc5)o4)s3)cc2c1 | 0.61 |
| CCN(CC)c1ccc2cc(/C=C/C(O)=C/C(C)=O)c(=O)oc2c1 | 0.53 |
| COC1(OC)C2(Cl)c3nc4cc(-c5cccs5)ccc4nc3C1(Cl)C1C[C@H]3[C@@H](CC12)C1(Cl)c2nc4ccc(-c5cccs5)cc4nc2C3(Cl)C1(OC)OC (some centres not stated) | 0.35 |
| c1csc(-c2ccc(-c3cccs3)c3nsnc23)c1 | 0.59 |
| CC1=[N+]2C(=C(c3c4ccccc4cc4ccccc34)c3ccc(/C=C/C(C)(C)C)n3[B-]2(F)F)C=C1 | 0.32 |
| CC1(C)CCc2c(c3ccccc3c3nc4c(nc23)c2c(c3ccccc34)OC(C)(C)CC2)O1 | 0.42 |
| CN(C)c1ccc(-c2ccc(-c3cc(-c4ccccc4)c(-c4ccccc4)c(-c4ccccc4)c3-c3ccccc3)nc2)cc1 | 0.33 |
| c1ccc2cc3cc(-c4cc(-c5nccs5)nc(-c5nccs5)c4)ccc3cc2c1 | 0.433 |
| C#CCn1c2ccccc2c2cc(/C=C/c3cc(C)c4n3[B-](F)(F)[N+]3=C(C)C=C(C)C3=C4c3ccc(I)cc3)ccc21 | 0.66 |
| CCOC(=O)C(C(=O)OCC)C1=[N+]2C(=C(c3ccc(C)cc3)c3ccc(C(C(=O)OCC)C(=O)OCC)n3[B-]2(F)F)C=C1 | 0.59 |
| N#CC1=CC(/C=C/c2ccccc2)=CC(C#N)=P1(c1ccccc1)c1ccccc1 | 0.13 |
| F[Si](c1ccccc1)(c1ccccc1)c1c2ccccc2cc2ccccc12 | 0.52 |
| CN(C)c1ccc(/C=C/C=C2\CC/C(=C\c3ccc(N(C)C)cc3)C2=O)cc1 | 0.27 |
| CCCCCCOc1ccc(C#Cc2ccc(-c3ccc(-c4ccc(C#Cc5ccc(OCCCCCC)c(OCCCCCC)c5)s4)c4nsnc34)s2)cc1OCCCCCC | 0.43 |
| CCCCCCN1C(=O)c2cccc3cc(/N=C\c4ccc(N5CCOCC5)cc4)cc(c23)C1=O | 0.089 |
| CC[N+](CC)=c1ccc2c(-c3ccccc3C(=O)O)c3cc4c(-c5ccccc5C(=O)O)c5ccc(=[N+](CC)CC)cc-5oc4cc3oc-2c1 | 0.17 |
